The binders listed here are annotated with their fold change of affinity.
# system: T1, Human CD3eg linker (human)
# T1 construct: Single-chain construct; also called recombinant human CD3
# T1 chain: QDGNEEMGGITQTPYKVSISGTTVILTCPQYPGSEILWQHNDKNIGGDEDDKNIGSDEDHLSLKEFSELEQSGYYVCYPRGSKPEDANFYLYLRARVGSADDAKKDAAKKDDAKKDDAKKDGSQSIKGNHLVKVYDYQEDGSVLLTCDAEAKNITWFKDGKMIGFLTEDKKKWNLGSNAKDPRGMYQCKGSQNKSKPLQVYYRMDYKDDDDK
# assay-text: SPR; fold vs parent H183/L072
Field format: number, assumed fold, no unit text.

{"columns": ["binder", "fold change of affinity / fold"],
 "data": [
  ["H183/L072 VL Q24W (antibody, name in Kabat numbering, V domains shown) VH: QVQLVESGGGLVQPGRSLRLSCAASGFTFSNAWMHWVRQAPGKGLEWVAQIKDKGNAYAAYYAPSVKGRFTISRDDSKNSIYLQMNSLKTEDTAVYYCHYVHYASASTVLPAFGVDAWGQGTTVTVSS VL: DIVMTQSPLSLPVTPGEPASISCWASQELVHMNRNTYLHWYQQKPGQAPRLLIYKVSNRFPGVPDRFSGSGSGTDFTLKISRVEAEDVGVYYCAQGTSVPFTFGQGTKLEIK", 1.1],
  ["H183/L072 VL E27aG (antibody, name in Kabat numbering, V domains shown) VH: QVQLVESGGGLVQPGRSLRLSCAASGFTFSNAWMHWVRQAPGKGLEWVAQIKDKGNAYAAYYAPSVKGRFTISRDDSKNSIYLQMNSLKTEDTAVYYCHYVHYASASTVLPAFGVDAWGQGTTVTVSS VL: DIVMTQSPLSLPVTPGEPASISCQASQGLVHMNRNTYLHWYQQKPGQAPRLLIYKVSNRFPGVPDRFSGSGSGTDFTLKISRVEAEDVGVYYCAQGTSVPFTFGQGTKLEIK", 1.4]
]}

Now for another entry.
### Prompt Requested field: fold change of affinity. Item: H183/L072 VL Q24S (antibody, name in Kabat numbering, V domains shown) VH: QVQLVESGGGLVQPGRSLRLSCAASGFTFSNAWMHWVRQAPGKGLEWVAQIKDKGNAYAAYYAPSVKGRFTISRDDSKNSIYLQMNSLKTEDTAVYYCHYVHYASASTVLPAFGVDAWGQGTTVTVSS VL: DIVMTQSPLSLPVTPGEPASISCSASQELVHMNRNTYLHWYQQKPGQAPRLLIYKVSNRFPGVPDRFSGSGSGTDFTLKISRVEAEDVGVYYCAQGTSVPFTFGQGTKLEIK
### Response 1.1
